B1: Poly(rC)-binding protein 1, residues 278 to 350; numbered along this chain, Q15365 (parent)
chain: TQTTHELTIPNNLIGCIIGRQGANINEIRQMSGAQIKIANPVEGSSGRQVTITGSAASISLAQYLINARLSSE

Variants of: B1
Test: abundance fitness (aPCA) (normalised: wild type 0, dead -1); higher = more abundant; growth selection in yeast, the domain comes from the species named
Settings: Homo sapiens
Tag: 1 if measured abundance fitness is not below -0.1, -1 if it is.

G15F    -1
I25K    -1
R48Y    1
V42M    -1
G15Q    -1
A68R    1
E43C    -1
A57W    -1
A57N    1
S72E    1

stdin: Determine whether measured abundance fitness meets or exceeds -0.1 for `M31S`
stdout: -1

stdin: Determine whether measured abundance fitness meets or exceeds -0.1 for `S32V`
stdout: -1

stdin: Determine whether measured abundance fitness meets or exceeds -0.1 for `V50S`
stdout: -1

stdin: Determine whether measured abundance fitness meets or exceeds -0.1 for `P41A`
stdout: 1

stdin: Determine whether measured abundance fitness meets or exceeds -0.1 for `Q35R`
stdout: 1
